Biological target: Cytochrome P450 2D6 (Homo sapiens) (UniProt P10635)
Sequence (P10635 whole entry, looked up): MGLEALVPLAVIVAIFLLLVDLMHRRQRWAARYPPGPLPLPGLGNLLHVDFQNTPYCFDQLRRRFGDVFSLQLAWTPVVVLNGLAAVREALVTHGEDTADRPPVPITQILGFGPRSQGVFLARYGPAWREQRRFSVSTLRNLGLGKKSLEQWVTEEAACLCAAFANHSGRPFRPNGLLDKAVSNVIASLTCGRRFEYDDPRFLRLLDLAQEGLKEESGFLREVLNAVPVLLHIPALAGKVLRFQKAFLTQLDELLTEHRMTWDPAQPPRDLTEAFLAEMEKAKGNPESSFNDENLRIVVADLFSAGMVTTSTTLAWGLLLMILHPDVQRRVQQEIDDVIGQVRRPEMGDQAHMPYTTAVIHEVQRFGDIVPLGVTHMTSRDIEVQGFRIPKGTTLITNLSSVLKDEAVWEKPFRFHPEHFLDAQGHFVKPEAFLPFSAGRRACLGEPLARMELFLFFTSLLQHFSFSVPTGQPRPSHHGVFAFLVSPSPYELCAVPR
Assay: Cytochrome panel assay with activity outcomes; for activity, negative = inhibition: % is set by controls: 0 for no effect and ±100 for the full control effect
Details: recombinant CYP, pro-luciferin dealkylation, luminescence, p450-cyp2d6; series mostly up to 57.1 µM
In all, about 16,000 compounds went through this assay and about 2,600 (16%) were called active. Inconclusive results (about 20%) are left out. Not all results are given here.
Measurement kind: activity, negative = inhibition

Challenge: Item: O=C1c2ccccc2-c2ccc(N(Cc3ccc(Br)cc3)Cc3ccc(Br)cc3)cc21 Test system: Cytochrome P450 2D6 (Homo sapiens) (UniProt P10635) Read-out: activity, negative = inhibition Value: ?
Response given: -1.8% [at 11.4 µM] (inactive)

Challenge: Ok, now O=C1CCCC=C1[C@H](O)c1ccc([N+](=O)[O-])cc1
Response given: -11.2% [at 11.4 µM] (inactive)

Challenge: Ok, now Cc1nc(CN2CCCCC2)c(O)c(=O)[nH]1
Response given: -19.7% [at 11.4 µM] (inactive)

Further cases:
Challenge: Item: O=C(O)c1cc(C(=O)O)nc(C(=O)O)c1 Test system: Cytochrome P450 2D6 (Homo sapiens) (UniProt P10635) Read-out: activity, negative = inhibition Value: ?
Response given: 0.571% [at 11.4 µM] (inactive)

Challenge: Ok, now COC(=O)C/C=C\[C@@H](C)[C@@H](/C=N\O[C@@H](C)CN1CCCCc2nc(C)c(C)cc21)NS(=O)(=O)c1ccc(C)cc1
Response given: 2.33% [at 11.4 µM] (inactive)

Challenge: Ok, now Cc1cc(Cc2c(C)c(C)c(Cc3cc(C)cc(C(C)(C)C)c3O)c(C)c2C)c(O)c(C(C)(C)C)c1
Response given: 12% [at 11.4 µM] (inactive)

Challenge: Ok, now CO/N=C\[C@@H](NS(=O)(=O)c1ccc(C)cc1)[C@H](C)/C=C\CC(=O)OC
Response given: -13.5% [at 11.4 µM] (inactive)

Challenge: Ok, now C/C(CCN1CCc2nc(-c3ccccc3)c(-c3ccccc3)cc2C1)=N\O[C@@H](C)CN1CCCCc2nc(C)c(C)cc21
Response given: -4.1% [at 11.4 µM] (inactive)

Challenge: Ok, now Cn1c(=O)c2[nH]c(CCCc3ccc([N+](=O)[O-])cc3)nc2n(C)c1=O
Response given: -15.3% [at 11.4 µM] (inactive)

----------
Molecular target: Cytochrome P450 2D6 (Homo sapiens) (UniProt P10635)
Experiment: Cytochrome panel assay with activity outcomes
Conditions: recombinant CYP, pro-luciferin dealkylation, luminescence, p450-cyp2d6; series mostly up to 57.1 µM
Protocol: The P450 gene superfamily is involved in the metabolism and clearance of xenobiotics. This assay used various human CYP P450 isozymes to measure the dealkylation of various pro-luciferin substrates to luciferin. The luciferin is then measured by luminescence after the addition of a luciferase detection reagent. […] Inhibitors and some substrates limit the production of luciferin, and decrease measured luminescence. […] 8, Detection, 1 sec, ViewLux luminescent read […]
The whole screen tested about 16,000 compounds, of which about 2,600 (16%) were called active. About 20% were inconclusive and are not listed. Calls come from the whole dose curve; as a rule, active = well fitted curve in the direction sought with a large enough effect; inconclusive = small, poorly fitted or top-dose-only effect, or effect the other way; inactive = no such curve, though single readings can be large or run the other way. Not all results are given here.
Answer with one of the outcomes given here: yes (1) (active), no (0) (inactive)

These solved cases illustrate the format of a correct answer.
Challenge: Which outcome did this test record for the compound COc1ccc(-c2csc3c2[N+]2=CCC=C2C3=O)cc1 ?
Response given: yes (1)

Challenge: Ok, now COc1cccc(OCCCOc2ccccc2C(C)C)c1
Response given: no (0)

Challenge: Ok, now COc1cccc(/C=N\NC(=O)c2cc(OCC(F)(F)F)ccc2OCC(F)(F)F)c1
Response given: no (0)

Challenge: Ok, now Cc1ccc(CSc2nnc(-c3ccncc3)n2CC2CCCO2)cc1 (stereo unspecified)
Response given: no (0)

Challenge: Ok, now CCOC(=O)c1c(-c2ccc(OC)cc2)csc1NC(=O)CCN1C(=O)c2ccccc2C1=O
Response given: no (0)

Further cases:
Challenge: Which outcome did this test record for the compound CCOc1cccc(OCCCNCCCOC)c1 ?
Response given: yes (1)

----------
Overview of reported activity, negative = inhibition across a group of molecules:
Molecular target: Cytochrome P450 2D6 (Homo sapiens) (UniProt P10635)
Experiment: Cytochrome panel assay with activity outcomes; for activity, negative = inhibition: % is set by controls: 0 for no effect and ±100 for the full control effect
Settings: recombinant CYP, pro-luciferin dealkylation, luminescence, p450-cyp2d6; series mostly up to 57.1 µM
About 2,600 (16%) of roughly 16,000 compounds were called active. About 20% were inconclusive and are not listed. A selection follows.

Challenge: Fill in: activity, negative = inhibition of CC(C)(S)[C@H](N)C(=O)O is ___
Response given: 14.1% [at 11.4 µM] (inactive)

Challenge: Ok, now O=C(O)c1cc(-c2ccc(-c3ccc(-c4cc(C(=O)O)c5cc(Cl)ccc5n4)cc3)cc2)nc2ccc(Cl)cc12
Response given: 16.7% [at 11.4 µM] (inactive)

Challenge: Ok, now CC(C)=CCC/C(C)=C/CO/N=C1/[C@H]2O[C@@H]2[C@@H](O)[C@H]2[C@H]1CCn1c(=O)n(Cc3cc4c(cc3Cl)OCO4)c(=O)n12
Response given: -10.5% [at 11.4 µM] (inactive)

Further cases:
Challenge: Fill in: activity, negative = inhibition of CC1(C)CC(=O)C(C(c2cccc(O)c2O)C2C(=O)CC(C)(C)CC2=O)C(=O)C1 is ___
Response given: -12.6% [at 11.4 µM] (inactive)

----------
Biological target: Cytochrome P450 2D6 (Homo sapiens) (UniProt P10635)
Experiment: Cytochrome panel assay with activity outcomes
Settings: recombinant CYP, pro-luciferin dealkylation, luminescence, p450-cyp2d6; series mostly up to 57.1 µM
About 2,600 (16%) of roughly 16,000 compounds were called active. Not shown: some 20% with an inconclusive outcome. The call rests on the fitted dose curve; in most records, active means well fitted curve in the direction sought with a large enough effect; inconclusive means small, poorly fitted or top-dose-only effect, or effect the other way; inactive means no such curve, though single readings can be large or run the other way. Not all results are given here.
Answer with one of the outcomes given here: active, inactive

Challenge: Which outcome did this test record for the molecule C=CCc1ccccc1OC[C@H](O)CNC(C)C ?
Response given: active

Challenge: Ok, now Cc1nc2sccn2c(=O)c1Cl
Response given: inactive

Challenge: Ok, now COC(=O)c1nn(-c2ccccc2)c(-c2ccccc2)c1C(=O)c1ccccc1
Response given: inactive

Further cases:
Challenge: Which outcome did this test record for the molecule O=C(c1cnc(N2CCN(c3ncccn3)CC2)c2ccccc12)N1CCN(c2ccccn2)CC1 ?
Response given: active

Challenge: Ok, now O=C(Cn1ccc2ccccc2c1=O)N1CCN(c2cccc(Cl)c2)CC1
Response given: inactive

Challenge: Ok, now CC(C)NC[C@@H](O)COc1cccc2ccccc12
Response given: inactive

Challenge: Ok, now CCN(C(=O)COc1cc(=O)n(C)c2ccccc12)c1cccc(Cl)c1
Response given: inactive

Challenge: Ok, now C=CC[C@H](N)C(=O)O
Response given: inactive

Challenge: Ok, now Cn1c(CNS(=O)(=O)c2ccc(F)cc2)n[nH]c1=S
Response given: inactive

Challenge: Ok, now Cc1ccc2ccccc2c1CSc1nc(N)nc2c1ncn2CC(C)C
Response given: active

Challenge: Ok, now CCN(C(=O)c1cnc(N2CCN(c3ncccn3)CC2)c2ccccc12)c1cccc(Cl)c1
Response given: active

----------
Biological target: Cytochrome P450 2D6 (Homo sapiens) (UniProt P10635)
Assay: Cytochrome panel assay with activity outcomes
Settings: recombinant CYP, pro-luciferin dealkylation, luminescence, p450-cyp2d6; series mostly up to 57.1 µM
The campaign covered roughly 16,000 compounds. About 2,600 (16%) were called active. About 20% were inconclusive and are not listed. Calls come from the whole dose curve; as a rule, active = well fitted curve in the direction sought with a large enough effect; inconclusive = small, poorly fitted or top-dose-only effect, or effect the other way; inactive = no such curve, though single readings can be large or run the other way. Not all results are given here.
Answer with one of the outcomes given here: active, inactive

These solved cases illustrate the format of a correct answer.
Challenge: Which outcome did this test record for the compound COc1ccccc1CNc1ccnc(-c2ccoc2)n1 ?
Response given: active

Challenge: Ok, now CCOc1cc(/C=C2\N=C(C)OC2=O)cc(Br)c1OCC(=O)OC
Response given: inactive

Challenge: Ok, now CCSc1nc2ccccc2n1C(=O)/C=C\c1ccc(OC)c(OC)c1
Response given: inactive

Challenge: Ok, now CCC1(C)Nc2ccccc2C(=O)N1O (configuration not stated)
Response given: inactive

Now for a further compound.
Challenge: Which outcome did this test record for the compound OCCCCNCc1ccc(OCc2ccccc2Cl)cc1 ?
Response given: active

----------
Biological target: Cytochrome P450 2D6 (Homo sapiens) (UniProt P10635)
Test: Cytochrome panel assay with activity outcomes
Details: recombinant CYP, pro-luciferin dealkylation, luminescence, p450-cyp2d6; series mostly up to 57.1 µM
In all, about 16,000 compounds went through this assay and about 2,600 (16%) were called active. Inconclusive results (about 20%) are left out. Calls follow the shape of the dose curve; as a rule, active = well fitted curve in the direction sought with a large enough effect; inconclusive = small, poorly fitted or top-dose-only effect, or effect the other way; inactive = no such curve, though single readings can be large or run the other way. Not all results are given here.
Answer with one of the outcomes given here: 1 (yes) for active, 0 (no) for inactive

These solved cases illustrate the format of a correct answer.
Challenge: Which outcome did this test record for the compound CCOC(=O)c1ccc(NC(=O)COc2ccccc2OC)cc1 ?
Response given: 0 (no)

Challenge: Ok, now C=C(C)C(=O)N1CC2(CC(c3cccc(NC(=O)c4ccccc4)c3)=NO2)C[C@@H]1C(N)=O (stereo partly drawn)
Response given: 0 (no)

Further cases:
Challenge: Which outcome did this test record for the compound c1ccc2cc(Sc3ncnc4c3oc3ccccc34)ccc2c1 ?
Response given: 0 (no)

Challenge: Ok, now CCOc1ccc(CC(=O)C2C(=O)CCCC2=O)cc1OCC
Response given: 0 (no)

Challenge: Ok, now CCOc1ccc(CNC(=O)C2CC(=O)N(C3CCCC3)C2)cc1OC (stereo not drawn)
Response given: 0 (no)

Challenge: Ok, now COc1ccc(C(=O)N2CC3(CC(c4cccc([N+](=O)[O-])c4)=NO3)C[C@H]2C(=O)NCC(N)=O)cc1 (stereo partly drawn)
Response given: 0 (no)

Challenge: Ok, now O=C(Cn1cnc2c(oc3ccccc32)c1=O)NCc1ccco1
Response given: 0 (no)

Challenge: Ok, now CCc1ccc(-c2cc(C(F)(F)F)n3nc(C(=O)Nc4cnn(Cc5ccccc5C)c4)cc3n2)s1
Response given: 0 (no)

Challenge: Ok, now Cc1nnc(C)n1/N=C/c1cccs1
Response given: 0 (no)

Challenge: Ok, now Cc1ccc(/C=N/n2c(COc3ccccc3)n[nH]c2=S)s1
Response given: 0 (no)

Challenge: Ok, now CC(C)NC[C@@H](O)COc1ccc(COCCOC(C)C)cc1
Response given: 0 (no)

Challenge: Ok, now COc1cc(CNC(C)(C)CO)ccc1OCC(=O)Nc1ccc(Br)cc1
Response given: 1 (yes)

Challenge: Ok, now C=CCOc1ccc(CNC(C)(C)CO)cc1OC
Response given: 1 (yes)

Challenge: Ok, now S=c1[nH]nc(C2CCCCC2)n1/N=C/c1cccs1
Response given: 1 (yes)

Challenge: Ok, now c1ccc(-c2nc(NCCCn3ccnc3)c3oc4ccccc4c3n2)cc1
Response given: 1 (yes)

Provenance of the data: PubChem BioAssay AID1851
